From: PubChem BioAssay

# targetEntity: NADPH oxidase 4 (Homo sapiens)
# assayComment: compounds shifting NOX4 Amplex Red fluorescence – cell-based, HEK293-NOX4, tetracycline-induced, NOX inhibitor project, primary screen (AID 1160)
# conditionDescription: HEK293-NOX4, Amplex Red H2O2 fluorescence, 45 min; higher = more signal, called active from +8 up or from −8 down
The source made the active and inactive calls.
recordedEndpoint: z-score

INSERT INTO measurements (compound, targetentity, resultvalue) VALUES
  ('C[N+](C)(C)CCCC[C@@H]1NC(=O)[C@@H]2C[C@H](C(=O)NCCCCCCNC(=O)CS)[C@H](c3ccc(O)cc3)N2C1=O', 'NADPH oxidase 4 (Homo sapiens)', '0.449 (inactive)'),
  ('CCCC=C(CCC)[C@@H](NC(=O)OCC(C)C)c1ccccc1', 'NADPH oxidase 4 (Homo sapiens)', '-3.58 (inactive)'),
  ('C=CCC(OC(C)=O)[C@@H]1[C@@H](N(Cc2ccc(-c3cccc(C(F)(F)F)c3)o2)C(=O)Cc2ccc(OC)cc2)c2cc(OCCCO)ccc2N1C(=O)c1ccc2ccccc2c1 (stereo partly drawn)', 'NADPH oxidase 4 (Homo sapiens)', '-1.99 (inactive)'),
  ('COc1ccc([Si](C)(C)[C@H]2[C@H](CCn3cc([C@H](O)c4ccccc4)nn3)O[C@@]3(C(=O)N(C)c4ccccc43)[C@@H]2C)cc1', 'NADPH oxidase 4 (Homo sapiens)', '0.0296 (inactive)'),
  ('CCCCN1CC=CC23O[C@@H]4/C=C\CCCOC(=O)C4[C@H]2C(=O)N(CCCCCO)[C@@H]3C1=O (stereo partly drawn)', 'NADPH oxidase 4 (Homo sapiens)', '-0.18 (inactive)'),
  ('O=C1O[C@H](c2ccccc2)[C@H](c2ccccc2)N2[C@H]1[C@@H](C(=O)NC[C@H](O)c1ccccc1)[C@]1(C(=O)Nc3ccc(C#CC4=CCCCC4)cc31)[C@H]2c1ccccc1OCCO', 'NADPH oxidase 4 (Homo sapiens)', '1.04 (inactive)'),
  ('COc1ccccc1CN1C(=O)c2ccccc2[C@@H](C(=O)NCc2ccccc2)[C@@H]1c1ccc(CO)cc1', 'NADPH oxidase 4 (Homo sapiens)', '0.148 (inactive)'),
  ('COCCCNC(=O)[C@@H]1c2ccccc2C(=O)N(Cc2ccccc2)[C@H]1c1ccc(CO)cc1', 'NADPH oxidase 4 (Homo sapiens)', '0.572 (inactive)'),
  ('O=C1C2C=CC(C(O)c3ccc(F)cc3)N(Nc3ccc([N+](=O)[O-])cc3)C2C(=O)N1c1ccccc1 (stereo not drawn)', 'NADPH oxidase 4 (Homo sapiens)', '-2.96 (inactive)'),
  ('[N-]=[N+]=Nc1ccccc1C[C@@]1(C(=O)N2CCCCC2)N=C(c2ccc(OCCCO)cc2)O[C@@H]1c1ccccc1N=[N+]=[N-]', 'NADPH oxidase 4 (Homo sapiens)', '-0.141 (inactive)'),
  ('COc1ccc([Si](C)(C)[C@@H]2[C@@H](CCO)O[C@]3(C(=O)N(Cc4cccc(N5CCOC5=O)c4)c4ccccc43)[C@H]2C)cc1', 'NADPH oxidase 4 (Homo sapiens)', '2.15 (inactive)'),
  ('C=C(CCCC)/C(=C/C[C@H](OC(=O)c1ccncc1)c1ccc(OCCO)cc1)c1cc(C(=O)OC)ccc1OC', 'NADPH oxidase 4 (Homo sapiens)', '-1.3 (inactive)'),
  ('O=C(CS)NCCCCCNC(=O)[C@@H]1C[C@@H]2C(=O)NCC(=O)N2[C@@H]1c1cccc(OCCO)c1', 'NADPH oxidase 4 (Homo sapiens)', '1.06 (inactive)'),
  ('C#CCNCc1ccccc1', 'NADPH oxidase 4 (Homo sapiens)', '-0.493 (inactive)'),
  ('CC[C@@H]1C=C(C(=O)O)[C@H](c2ccc(C)cc2)N1S(=O)(=O)c1ccc(C)cc1', 'NADPH oxidase 4 (Homo sapiens)', '-0.57 (inactive)'),
  ('COc1cc(OC)c(C(O)C2C=CC3C(=O)NC(=O)C3N2Nc2ccccn2)cc1Br (stereo not drawn)', 'NADPH oxidase 4 (Homo sapiens)', '-2.81 (inactive)'),
  ('COc1cc2c(cc1O)C=[N+](Cc1cc3c(cc1Br)OCO3)CC2', 'NADPH oxidase 4 (Homo sapiens)', '-2.72 (inactive)'),
  ('C=C(CCCC)/C(=C/C[C@@H](OC(C)=O)c1cccc(OCCO)c1)c1cnc2ccccc2c1', 'NADPH oxidase 4 (Homo sapiens)', '-0.934 (inactive)'),
  ('C=CCN1C(=O)[C@]2(Cc3ccccc3)N=C(c3ccc(OCCCO)cc3)O[C@@H]2c2ccccc21', 'NADPH oxidase 4 (Homo sapiens)', '0.46 (inactive)'),
  ('CN1C(=O)C2C=CC(C(O)c3ccc(F)cc3)N(N(c3ccccc3)c3ccccc3)C2C1=O (stereo not drawn)', 'NADPH oxidase 4 (Homo sapiens)', '-1.82 (inactive)'),
  ('COCC(=C=CC[C@H](O)c1cccc(OCCO)c1)CCO', 'NADPH oxidase 4 (Homo sapiens)', '-0.625 (inactive)'),
  ('COCCCNC(=O)[C@@]1(Sc2ccc(C)cc2)CC(=O)N(Cc2ccccc2Cl)[C@@H]1c1ccc(CO)cc1', 'NADPH oxidase 4 (Homo sapiens)', '-1.22 (inactive)'),
  ('NC(=O)NCC#Cc1ccc2c(c1)[C@]1(C(=O)N2)[C@H](C(=O)O)[C@H]2C(=O)O[C@H](c3ccccc3)[C@H](c3ccccc3)N2[C@@H]1c1ccc(O)cc1', 'NADPH oxidase 4 (Homo sapiens)', '-0.399 (inactive)');

###

In this section we review reported composite z-score values for a set of compounds.
# System: Plasmodium falciparum Sir2 (PF13_0152, Sir2A)
# assayComment: Plasmodium falciparum Sir2A binding compounds – biochemical, small-molecule microarray, 635 nm fluorescence, primary screen (AID 1098);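 note: score merges spot fluorescence intensity with its signal-to-noise ratio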
# conditionDescription: fluorescence 635 nm, higher = more signal
recordedEndpoint: composite z-score

INSERT INTO measurements (compound, recordedendpoint, resultvalue) VALUES
  ('Cc1ccc(S[C@]2(C(=O)O)CC(=O)N(Cc3ccccc3C(F)(F)F)[C@@H]2c2ccc(CO)cc2I)cc1', 'composite z-score', -0.135),
  ('O=C1C2C=CC(C(O)c3ccc(F)cc3)N(Nc3ccc([N+](=O)[O-])cc3)C2C(=O)N1c1ccccc1 (stereo not drawn)', 'composite z-score', 1.38),
  ('COC(=O)C(CC#Cc1ccc2c(c1)[C@]1(C(=O)N2)[C@H](c2ccccc2OCCO)N2[C@H](c3ccccc3)[C@H](c3ccccc3)OC(=O)[C@H]2[C@@H]1C(=O)O)C(=O)OC', 'composite z-score', 1.49);

###

# assayComment: calcein-AM signal in unstimulated myeloma cells – cell-based, calcein-AM fluorescence, 48 h, PK04 Diversity Set, profiling panel (AID 1166);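 note: cells grown under basal conditions without added stimulus; test concentration not given here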
# conditionDescription: RPMI8226 myeloma viability, higher = more signal
hey, just use t if measured z-score is less than -1, otherwise f

INSERT INTO assay_data (compound, assignedlabel) VALUES
  ('COc1cc2c(cc1OC)CN(C(=O)[C@H]1[C@@H]3C(=O)O[C@@H](c4ccccc4)[C@@H](c4ccccc4)N3[C@@H](c3ccccc3OCCO)[C@]13C(=O)Nc1ccc(C#CCCO)cc13)CC2', 'f'),
  ('CCOC(=O)C1=CC[C@@H](c2ccc(C(F)(F)F)cc2)N(S(=O)(=O)c2ccc(C)cc2)[C@H]1c1ccccc1', 't'),
  ('C[N+](C)(C)CCCC[C@@H]1NC(=O)[C@H]2C[C@@H](C(=O)NCCCCCCNC(=O)CS)[C@@H](c3ccc(O)cc3)N2C1=O', 'f'),
  ('COc1ccc([Si](C)(C)[C@@H]2[C@@H](CC(=O)N3Cc4ccccc4C[C@H]3CO)O[C@]3(C(=O)N(Cc4cccc(N5CCC5=O)c4)c4ccccc43)[C@H]2C)cc1', 't'),
  ('O=C1C2C=CC(C(O)C=Cc3ccc([N+](=O)[O-])cc3)N(n3cnnc3)C2C(=O)N1Cc1ccccc1 (configuration not stated)', 't'),
  ('O=C(CS)NCCCCCNC(=O)[C@H]1C[C@H]2C(=O)NCC(=O)N2[C@H]1c1ccc(O)cc1', 'f'),
  ('COC(=O)[C@@]1(Cc2ccc(OC)cc2)[C@H]2c3cc(C(=O)N4CCCC4)n(Cc4nc5ccccc5[nH]4)c3C[C@H]2CN1C(=O)c1ccccc1', 't'),
  ('C=CCNC(=O)[C@H]1[C@@H]2C(=O)O[C@@H](c3ccccc3)[C@@H](c3ccccc3)N2[C@@H](c2ccc(OCCO)cc2)[C@]12C(=O)Nc1ccc(C#CCC(C(=O)OC)C(=O)OC)cc12', 't'),
  ('COc1cc2c(cc1O)C=[N+](Cc1cc3c(cc1Br)OCO3)CC2', 'f'),
  ('CS(=O)(=O)CCOC(=O)C1=CC(CCCO)=CC(c2ccc(CN3CCCC3)cc2)N(Cc2cccc(OC(F)(F)F)c2)C=C1C(=O)OCCS(C)(=O)=O (configuration not stated)', 'f'),
  ('COCCCNC(=O)[C@]1(Cc2ccccc2)N=C(c2ccc(OCCCO)cc2)O[C@@H]1c1ccccc1CN=[N+]=[N-]', 't'),
  ('O=C1C2C=CC(C(O)c3ccc(-c4ccccc4)s3)N(Nc3ccccc3)C2C(=O)N1c1ccccc1 (configuration not stated)', 't');
